Test system: Escherichia coli ATTC 25922
Type: cell-based
run-conditions: ATTC 25922
Method: The minimal peptide concentration required to prevent the growth of a given test organism was determined after incubation overnight at 37 °C and was defined as the MIC. Activity was determined in representative bacteria, Escherichia coli ATTC 25922, Pseudomonas aeruginosa ATTC 27853, and Staphylococcus aureus ATTC 25923, using the broth microdilution method. […]
Positions of bridges follow the written chain, without caps; N, C: chain ends. Non-standard residues stand in square brackets, D forms with d. Residues, ends and D or L forms follow the SMILES beside them. *: point of attachment. dAoc(2) = CCCCCC[C@@H](N)C(=O)O; Lauroyl = CCCCCCCCCCCC(=O)*; Decanoyl = CCCCCCCCCC(=O)*; dNle = CCCC[C@@H](N)C(=O)O; Nonanoyl = CCCCCCCCC(=O)*; Heptanoyl = CCCCCCC(=O)*; Nle = CCCC[C@H](N)C(=O)O; Octanoyl = CCCCCCCC(=O)*; Dab = NCC[C@H](N)C(=O)O
reported-property: MIC EC (µM)
Write down the numeric answer in µM and omit the unit.

Prompt: MIC EC lookup needed for CCCCCCC(=O)N[C@@H](CCN)C(=O)N[C@H](C(=O)N[C@@H](CCN)C(=O)N[C@H]1CSSC[C@H](C(N)=O)NC(=O)[C@H](CCN)NC(=O)[C@H](CCN)NC(=O)[C@H](CCCC)NC(=O)[C@@H](CCCCCC)NC(=O)[C@H](CCN)NC1=O)[C@@H](C)O [spE-10] (Heptanoyl-[Dab]T[Dab]C[Dab][dAoc(2)][Nle][Dab][Dab][dC]-NH2; disulfide 4-10) , thanks.
Completion: 6.7

Prompt: MIC EC lookup needed for CCCCCCCCCCCC(=O)N[C@@H](CCN)C(=O)N[C@H](C(=O)N[C@@H](CCN)C(=O)N[C@H]1CSSC[C@H](C(N)=O)NC(=O)[C@H](CCN)NC(=O)[C@H](CCN)NC(=O)[C@H](CC(C)C)NC(=O)[C@@H](CC(C)C)NC(=O)[C@H](CCN)NC1=O)[C@@H](C)O [spE-4] (Lauroyl-[Dab]T[Dab]C[Dab][dL]L[Dab][Dab][dC]-NH2; disulfide 4-10) , thanks.
Completion: 6.5

Prompt: MIC EC lookup needed for CCCCCCCC(=O)N[C@@H](CCN)C(=O)N[C@H](C(=O)N[C@@H](CCN)C(=O)N[C@H]1CSSC[C@H](C(N)=O)NC(=O)[C@H](CCN)NC(=O)[C@H](CCN)NC(=O)[C@H](CCCC)NC(=O)[C@@H](Cc2ccccc2)NC(=O)[C@H](CCN)NC1=O)[C@@H](C)O [spB-5] (Octanoyl-[Dab]T[Dab]C[Dab][dF][Nle][Dab][Dab][dC]-NH2; disulfide 4-10) , thanks.
Completion: 1.7

Prompt: MIC EC lookup needed for CCCCCCCCC(=O)N[C@@H](CCN)C(=O)N[C@H](C(=O)N[C@@H](CCN)C(=O)N[C@H]1CSSC[C@H](C(N)=O)NC(=O)[C@H](CCN)NC(=O)[C@H](CCN)NC(=O)[C@H](CCCC)NC(=O)[C@@H](Cc2ccccc2)NC(=O)[C@H](CCN)NC1=O)[C@@H](C)O [spB-6] (Nonanoyl-[Dab]T[Dab]C[Dab][dF][Nle][Dab][Dab][dC]-NH2; disulfide 4-10) , thanks.
Completion: 1.6

Prompt: MIC EC lookup needed for CCCCCCCCCCCC(=O)N[C@@H](CCN)C(=O)N[C@H](C(=O)N[C@@H](CCN)C(=O)N[C@H]1CSSC[C@H](C(N)=O)NC(=O)[C@H](CCN)NC(=O)[C@H](CCCNC(=N)N)NC(=O)[C@H](CCCC)NC(=O)[C@@H](Cc2ccccc2)NC(=O)[C@H](CCN)NC1=O)[C@@H](C)O [spB-9] (Lauroyl-[Dab]T[Dab]C[Dab][dF][Nle]R[Dab][dC]-NH2; disulfide 4-10) , thanks.
Completion: 3.0

Prompt: MIC EC lookup needed for CCCCCCCCCC(=O)N[C@@H](CCN)C(=O)N[C@H](C(=O)N[C@@H](CCN)C(=O)N[C@H]1CSSC[C@H](C(N)=O)NC(=O)[C@H](CCN)NC(=O)[C@H](CCN)NC(=O)[C@H](CCCC)NC(=O)[C@@H](CCCC)NC(=O)[C@H](CCN)NC1=O)[C@@H](C)O [spE-7] (Decanoyl-[Dab]T[Dab]C[Dab][dNle][Nle][Dab][Dab][dC]-NH2; disulfide 4-10) , thanks.
Completion: 1.7

Prompt: MIC EC lookup needed for CCCCCCCCCCCC(=O)N[C@@H](CCN)C(=O)N[C@H](C(=O)N[C@@H](CCN)C(=O)N[C@H]1CSSC[C@H](C(N)=O)NC(=O)[C@H](CCN)NC(=O)[C@H](CCN)NC(=O)[C@H](CCCC)NC(=O)[C@@H](CCCC)NC(=O)[C@H](CCN)NC1=O)[C@@H](C)O [spE-8] (Lauroyl-[Dab]T[Dab]C[Dab][dNle][Nle][Dab][Dab][dC]-NH2; disulfide 4-10) , thanks.
Completion: 3.3

Prompt: MIC EC lookup needed for CCCCCCCC(=O)N[C@@H](CCN)C(=O)N[C@H](C(=O)N[C@@H](CCN)C(=O)N[C@H]1CSSC[C@H](C(N)=O)NC(=O)[C@H](CCN)NC(=O)[C@H](CCN)NC(=O)[C@H](CC(C)C)NC(=O)[C@@H](Cc2ccccc2)NC(=O)[C@H](CCN)NC1=O)[C@@H](C)O [spB-2] (Octanoyl-[Dab]T[Dab]C[Dab][dF]L[Dab][Dab][dC]-NH2; disulfide 4-10) , thanks.
Completion: 13

Prompt: MIC EC lookup needed for CCCCCCCCCC(=O)N[C@@H](CCN)C(=O)N[C@H](C(=O)N[C@@H](CCN)C(=O)N[C@H]1CSSC[C@H](C(N)=O)NC(=O)[C@H](CCN)NC(=O)[C@H](CCN)NC(=O)[C@H](CC(C)C)NC(=O)[C@@H](CC(C)C)NC(=O)[C@H](CCN)NC1=O)[C@@H](C)O [spE-3] (Decanoyl-[Dab]T[Dab]C[Dab][dL]L[Dab][Dab][dC]-NH2; disulfide 4-10) , thanks.
Completion: 6.7

Prompt: MIC EC lookup needed for CCCCCCCCCCCC(=O)N[C@@H](CCN)C(=O)N[C@H](C(=O)N[C@@H](CCN)C(=O)N[C@H]1CSSC[C@H](C(N)=O)NC(=O)[C@H](CCN)NC(=O)[C@H](CCN)NC(=O)[C@H](CC(C)C)NC(=O)[C@@H](Cc2ccccc2)NC(=O)[C@H](CCN)NC1=O)[C@@H](C)O [spB-4] (Lauroyl-[Dab]T[Dab]C[Dab][dF]L[Dab][Dab][dC]-NH2; disulfide 4-10) , thanks.
Completion: 13

Prompt: MIC EC lookup needed for CCCCCCCC(=O)N[C@@H](CCN)C(=O)N[C@H](C(=O)N[C@@H](CCN)C(=O)N[C@H]1CSSC[C@H](C(N)=O)NC(=O)[C@H](CCN)NC(=O)[C@H](CCN)NC(=O)[C@H](CC(C)C)NC(=O)[C@@H](CC(C)C)NC(=O)[C@H](CCN)NC1=O)[C@@H](C)O [spE-2] (Octanoyl-[Dab]T[Dab]C[Dab][dL]L[Dab][Dab][dC]-NH2; disulfide 4-10) , thanks.
Completion: 14

###

Test system: Pseudomonas aeruginosa ATTC 27853
Assay type: cell-based
run-conditions: broth microdilution, MHB, 5 × 10^5 CFU/mL, overnight 37 °C, triplicate, higher of the three
Positions of bridges follow the written chain, without caps; N, C: chain ends. Non-standard residues stand in square brackets, D forms with d. Residues, ends and D or L forms follow the SMILES beside them. *: point of attachment. dAoc(2) = CCCCCC[C@@H](N)C(=O)O; Lauroyl = CCCCCCCCCCCC(=O)*; dNle = CCCC[C@@H](N)C(=O)O; Heptanoyl = CCCCCCC(=O)*; Nle = CCCC[C@H](N)C(=O)O; Octanoyl = CCCCCCCC(=O)*; Dab = NCC[C@H](N)C(=O)O
reported-property: MIC PA (µg/mL)
Write down the numeric answer in µg/mL and omit the unit.

Prompt: MIC PA lookup needed for CCCCCCCCCCCC(=O)N[C@@H](CCN)C(=O)N[C@H](C(=O)N[C@@H](CCN)C(=O)N[C@H]1CSSC[C@H](C(N)=O)NC(=O)[C@H](CCN)NC(=O)[C@H](CCN)NC(=O)[C@H](CCCC)NC(=O)[C@@H](CCCC)NC(=O)[C@H](CCN)NC1=O)[C@@H](C)O [spE-8] (Lauroyl-[Dab]T[Dab]C[Dab][dNle][Nle][Dab][Dab][dC]-NH2; disulfide 4-10) , thanks.
Completion: 4

Prompt: MIC PA lookup needed for CCCCCCCCCCCC(=O)N[C@@H](CCN)C(=O)N[C@H](C(=O)N[C@@H](CCN)C(=O)N[C@H]1CSSC[C@H](C(N)=O)NC(=O)[C@H](CCN)NC(=O)[C@H](CCN)NC(=O)[C@H](CC(C)C)NC(=O)[C@@H](CC(C)C)NC(=O)[C@H](CCN)NC1=O)[C@@H](C)O [spE-4] (Lauroyl-[Dab]T[Dab]C[Dab][dL]L[Dab][Dab][dC]-NH2; disulfide 4-10) , thanks.
Completion: 1

Prompt: MIC PA lookup needed for CCCCCCC(=O)N[C@@H](CCN)C(=O)N[C@H](C(=O)N[C@@H](CCN)C(=O)N[C@H]1CSSC[C@H](C(N)=O)NC(=O)[C@H](CCN)NC(=O)[C@H](CCN)NC(=O)[C@H](CCCC)NC(=O)[C@@H](CCCCCC)NC(=O)[C@H](CCN)NC1=O)[C@@H](C)O [spE-10] (Heptanoyl-[Dab]T[Dab]C[Dab][dAoc(2)][Nle][Dab][Dab][dC]-NH2; disulfide 4-10) , thanks.
Completion: 1

Prompt: MIC PA lookup needed for CCCCCCCC(=O)N[C@@H](CCN)C(=O)N[C@H](C(=O)N[C@@H](CCN)C(=O)N[C@H]1CSSC[C@H](C(N)=O)NC(=O)[C@H](CCN)NC(=O)[C@H](CCN)NC(=O)[C@H](CCCC)NC(=O)[C@@H](Cc2ccccc2)NC(=O)[C@H](CCN)NC1=O)[C@@H](C)O [spB-5] (Octanoyl-[Dab]T[Dab]C[Dab][dF][Nle][Dab][Dab][dC]-NH2; disulfide 4-10) , thanks.
Completion: 4

Prompt: MIC PA lookup needed for CCCCCCCC(=O)N[C@@H](CCN)C(=O)N[C@H](C(=O)N[C@@H](CCN)C(=O)N[C@H]1CSSC[C@H](C(N)=O)NC(=O)[C@H](CCN)NC(=O)[C@H](CCN)NC(=O)[C@H](CC(C)C)NC(=O)[C@@H](Cc2ccccc2)NC(=O)[C@H](CCN)NC1=O)[C@@H](C)O [spB-2] (Octanoyl-[Dab]T[Dab]C[Dab][dF]L[Dab][Dab][dC]-NH2; disulfide 4-10) , thanks.
Completion: 8

Prompt: MIC PA lookup needed for CCCCCCCCCCCC(=O)N[C@@H](CCN)C(=O)N[C@H](C(=O)N[C@@H](CCN)C(=O)N[C@H]1CSSC[C@H](C(N)=O)NC(=O)[C@H](CCN)NC(=O)[C@H](CCCNC(=N)N)NC(=O)[C@H](CCCC)NC(=O)[C@@H](Cc2ccccc2)NC(=O)[C@H](CCN)NC1=O)[C@@H](C)O [spB-9] (Lauroyl-[Dab]T[Dab]C[Dab][dF][Nle]R[Dab][dC]-NH2; disulfide 4-10) , thanks.
Completion: 4
